System: normal rat kidney epithelial (NRK) cells
Assay: Cytotoxicity, WST-1 and nuclear morphology (Example 73)
Type: cell-based
Settings: read-out: EC50 (μM) NRK 2% O2, 2% O2, 24 hours of incubation
I'd be grateful if you could share measured EC50 for these entries.
Include the unit right after the number.

Please review the following examples before continuing.
Compound | EC50
CN1CCN(C(=O)Oc2cccc3c2[n+]([O-])c2cc(Br)c(Br)cc2[n+]3[O-])CC1 [Example 8g] | 62 µM
CN1CCN(C(=O)Oc2cccc3c2[n+]([O-])c2cc4ccccc4cc2[n+]3[O-])CC1 | 15 µM

Query: What value of measured EC50 is listed for CN1CCN(C(=O)Oc2cccc3c2[n+]([O-])c2cc(Br)c(Br)cc2[n+]3[O-])CC1 [Example 59] ?
Reply: 7.6 µM

====

System: human acute myeloid leukemia cell line MOLM-13
Assay: Cytotoxicity, WST-1 and nuclear morphology (Example 73)
Type: cell-based
Conditions: Homo sapiens; MOLM-13, 19% O2, 24 hours of incubation; read-out: EC50 (μM) MOLM-13 19% O2
What EC50 was measured for each of the following?
Answers are plain numbers, in µM.

// known answers, use as guide
Chemical Smiles | EC50 [µM]
CC(C)(C)OC(=O)COc1cccc2c1[n+]([O-])c1ccccc1[n+]2O | 2.2
CCOC(=O)COc1cccc2c1[n+]([O-])c1cccc(O)c1[n+]2[O-] | 0.57
CCOC(=O)COc1cccc2c1[n+]([O-])c1ccccc1[n+]2[O-] | 1.5

Query: Sample `CCOC(=O)COc1ccc2c(c1)[n+](O)c1ccccc1[n+]2O` — what was its EC50?
Reply: 32

====

Test system: human acute myeloid leukemia cell line MOLM-13
Experiment: Cytotoxicity, WST-1 and nuclear morphology (Example 73)
Format: cell-based
Details: Homo sapiens, MOLM-13, 24 h, read-out: EC50 (μM) MOLM-13 19% O2
Outcome Measure: EC50

Use the examples below as a reference point.
Chemical Smiles | EC50
CN1CCN(C(=O)Oc2cccc3c2[n+]([O-])c2cc(Br)c(Br)cc2[n+]3[O-])CC1 | 0.89 µM
CN1CCN(C(=O)Oc2cccc3c2[n+]([O-])c2cc4ccccc4cc2[n+]3[O-])CC1 | 0.34 µM

Please give EC50, item by item, for the list that follows.
1. CN1CCN(C(=O)Oc2ccc3c(c2)[n+](O)c2ccccc2[n+]3O)CC1
2. Cc1cc2c(cc1C)[n+](O)c1cc(OC(=O)N3CCN(C)CC3)ccc1[n+]2[O-]

Reply:
14 µM
17 µM

====

Give measured MIC A1-22 E. faecium vanA for each item. Keep answers brief.
Test system: vancomycin-resistant E. faecium vanA A1-22
Experiment: Microbroth dilution MIC
Type: cell-based
Conditions: compound alone
Numbers only, in µg/mL.

Here is how some compounds turned out for MIC A1-22 E. faecium vanA.
Compound | MIC A1-22 E. faecium vanA / µg/mL
CC(C)(C)OC(=O)COc1cccc2c1[n+]([O-])c1cccc(O)c1[n+]2[O-] | 8
COc1cccc2c1[n+]([O-])c1cccc(OC(=O)N3CCCC3)c1[n+]2[O-] | 63
COc1cccc2c1[n+]([O-])c1ccccc1[n+]2[O-] [Example 18, 1-methoxyphenazine 5,10-dioxide] | 32
CN1CCN(C(=O)Oc2cccc3c2[n+]([O-])c2ccccc2[n+]3[O-])CC1 | 8

Hey, can you go through the list below and give me MIC A1-22 E. faecium vanA for every item?
1. CCOC(=O)COc1cccc2c1[n+]([O-])c1cc(Br)c(Br)cc1[n+]2[O-]
2. CCOC(=O)COc1cccc2c1[n+]([O-])c1ccccc1[n+]2[O-]
3. COc1cccc2c1[n+]([O-])c1cccc(OC(=O)N(C)C)c1[n+]2[O-]

Reply:
8
4
63

Query: // MIC A1-22 E. faecium vanA lookup, key: `CCN(CC)C(=O)Oc1cccc2c1[n+]([O-])c1cccc(O)c1[n+]2[O-]`
Reply: 8

====

Test system: normal rat kidney epithelial (NRK) cells
Test: Cytotoxicity, WST-1 and nuclear morphology (Example 73)
Type: cell-based
Details: Rattus norvegicus, 24 h, read-out: EC50 (μM) NRK 2% O2, NRK, 2% O2, 24 hours of incubation
Kindly state EC50 for each of the entries shown.
Answers are plain numbers, in µM.

Example entries and their recorded answers appear below.
Chemical Smiles | EC50 (µM)
O=C(Oc1cccc2c1[n+]([O-])c1cccc(O)c1[n+]2[O-])N1CCCC1 | 15
COc1cccc2c1[n+]([O-])c1cccc(OC(=O)N3CCCC3)c1[n+]2[O-] | 35
Cc1cc2c(cc1C)[n+]([O-])c1c(OC(=O)N3CCN(C)CC3)cccc1[n+]2[O-] | 13
Cc1cc2c(cc1C)[n+]([O-])c1c(OC(=O)N3CCCC3)cccc1[n+]2[O-] | 8.9
COc1cccc2c1[n+]([O-])c1cccc(OC(=O)N3CCN(C)CC3)c1[n+]2[O-] | 39
CN1CCN(C(=O)Oc2cccc3c2[n+]([O-])c2cccc(O)c2[n+]3[O-])CC1 | 59

Parameter requested: EC50. Apply to each item below.
1. CN1CCN(C(=O)Oc2cccc3c2[n+]([O-])c2ccccc2[n+]3[O-])CC1
2. CN(C)C(=O)Oc1cccc2c1[n+]([O-])c1ccccc1[n+]2[O-]
3. COc1cccc2c1[n+]([O-])c1cccc(OC(=O)N(C)C)c1[n+]2[O-]
4. O=C(Oc1cccc2c1[n+]([O-])c1ccccc1[n+]2[O-])N1CCCC1
5. CN1CCN(C(=O)Oc2cccc3c2[n+]([O-])c2cc4ccccc4cc2[n+]3[O-])CC1

Reply:
1. 37
2. 25
3. 29
4. 21
5. 7.5

====

System: human acute myeloid leukemia cell line MOLM-13
Assay: Cytotoxicity, WST-1 and nuclear morphology (Example 73)
Assay type: cell-based
Settings: Homo sapiens; MOLM-13, 19% O2, 24 hours of incubation; read-out: EC50 (μM) MOLM-13 19% O2
Outcome Measure: EC50 (µM)
One number for each entry, in µM.

Some solved entries appear below for comparison.
Compound | EC50 (µM)
COc1cccc2nc3c(OC)cccc3nc12 | 72
CC(C)(C)OC(=O)COc1cccc2c1[n+]([O-])c1cccc(OCC(=O)OC(C)(C)C)c1[n+]2[O-] | 4.2
[O-][n+]1c2ccccc2[n+]([O-])c2cc(O)ccc21 [Example 60, 2-hydroxyphenazine 5,10-dioxide] | 128
CC(C)(C)OC(=O)COc1cccc2c1[n+]([O-])c1cccc(O)c1[n+]2[O-] | 2.9
[O-][n+]1c2cccc(O)c2[n+]([O-])c2cccc(O)c21 [Example 1c, 1,6-dihydroxyphenazine 5,10-dioxide, reference compound] | 2

Could you tell me EC50 for each of these compounds? They are listed below.
1. CCN(CC)C(=O)COc1cccc2c1[n+]([O-])c1cc(C)c(C)cc1[n+]2[O-]
2. CCOC(=O)COc1cccc2c1[n+]([O-])c1cccc(OCC(=O)OCC)c1[n+]2[O-] [Example 16c]

Reply:
1.8
2

====

Kindly supply the reported EC50 values for the records listed here.
System: human acute myeloid leukemia cell line MOLM-13
Test: Cytotoxicity, WST-1 and nuclear morphology (Example 73)
Type: cell-based
Settings: MOLM-13, 2% O2, 24 hours of incubation; read-out: EC50 (μM) MOLM-13 2% O2
Answers are plain numbers, in µM.

Chemical Smiles | Quantity Unit | Reading
CN1CCN(C(=O)Oc2cccc3c2[n+]([O-])c2cccc(O)c2[n+]3[O-])CC1 | µM | 1.4
COc1cccc2c1[n+]([O-])c1cccc(OC(=O)N3CCCC3)c1[n+]2[O-] | µM | 1.8
O=C(Oc1cccc2c1[n+]([O-])c1cccc(O)c1[n+]2[O-])N1CCCC1 | µM | 0.79
O=C(Oc1cccc2c1[n+]([O-])c1ccccc1[n+]2[O-])N1CCCC1 | µM | 1.2
CN1CCN(C(=O)Oc2cccc3c2[n+]([O-])c2ccccc2[n+]3[O-])CC1 | µM | 1.9
CN1CCN(C(=O)Oc2cccc3c2[n+]([O-])c2cc4ccccc4cc2[n+]3[O-])CC1 | µM | 1.8
CN(C)C(=O)Oc1cccc2c1[n+]([O-])c1ccccc1[n+]2[O-] | µM | 2.1
Cc1cc2c(cc1C)[n+]([O-])c1c(OC(=O)N3CCCC3)cccc1[n+]2[O-] | µM | 0.78
CN1CCN(C(=O)Oc2cccc3c2[n+]([O-])c2cc(Br)c(Br)cc2[n+]3[O-])CC1 | µM | 0.23
Cc1cc2c(cc1C)[n+]([O-])c1c(OC(=O)N3CCN(C)CC3)cccc1[n+]2[O-] | µM | 0.54

Batch of 2 compounds: report EC50 for each.
1. COc1cccc2c1[n+]([O-])c1cccc(OC(=O)N(C)C)c1[n+]2[O-]
2. COc1cccc2c1[n+]([O-])c1cccc(OC(=O)N3CCN(C)CC3)c1[n+]2[O-]

Reply:
1.7
0.98
